test system: LASCPC-01; assay: cell viability relative to DMSO control (fraction); higher = less growth inhibition (more viable cells); details: 2 µM; 72 h
Counter-ions that a name gives are not always drawn.
Below: a set of entries, each annotated with reported cell viability.
Please reply with the value in numeric form only.

| COMPOUND | TEST_SYSTEM | VALUE_REPORTED |
| --- | --- | --- |
| O=C1CC2(CCCC2)CC(=O)N1CCCCN1CCN(c2ncccn2)CC1 [Buspirone HCl] | LASCPC-01 | 1.02 |
| NCCc1c[nH]cn1 [Histamine] | LASCPC-01 | 1.07 |

Which cell viability is listed for NC(N)=NC(N)=Nc1ccccc1 [1-Phenylbiguanide] ?
0.991

Consider the compound "N#Cc1cc(CN2CCC(Nc3ncnc4sc(Cl)cc34)CC2)ccc1F" and give its measured cell viability.
0.875

Entry Nc1ccc2c(C(F)(F)F)cc(=O)oc2c1 [7-Amino-4-(trifluoromethyl)coumarin] has what cell viability?
0.894

Item under review: Cc1cc2c(s1)Nc1ccccc1N=C2N1CCN(C)CC1 [Olanzapine] . Reported cell viability?
1.02

Entry "Cn1ccc2cc(NC(=O)Nc3cccnc3)ccc21" : reported cell viability = ?
1.03

Reported cell viability, compound Cc1cc(-c2ccccc2)nnc1NCCN1CCOCC1 [Minaprine dihydrochloride] : ____
1

Sample O=C1NCCN1CCN1CCC(c2cn(-c3ccc(F)cc3)c3ccc(Cl)cc23)CC1 [Sertindole] — what was its cell viability?
0.499

GET /values?readout=cell viability&item= O=c1c(-c2ccc(O)cc2)coc2c([C@@H]3O[C@H](CO)[C@@H](O)[C@H](O)[C@H]3O)c(O)ccc12 [Puerarin]
0.989

----------
test system: LASCPC-01; test: cell viability relative to DMSO control (fraction); higher = less growth inhibition (more viable cells); conditions: 2 µM; 72 h
Where a name gives a salt, the structure may show the parent alone.
QUANTITY_NAME: cell viability

Completed entries (count: 3):
| COMPOUND | VALUE_REPORTED |
| --- | --- |
| Cc1nccn1CC1CCc2c(c3ccccc3n2C)C1=O (stereo unspecified) [Ondansetron HCl] | 1.03 |
| CCN(CC)CCOC(=O)C(Cc1cccc2ccccc12)CC1CCCO1 (stereo unspecified) [Nafronyl oxalate] | 1.07 |
| O=C(O[C@@H]1C[C@@H]2C[C@H]3C[C@H](C1)N2CC3=O)c1c[nH]c2ccccc12 [Dolasetron] | 1.15 |

Data request, read-out cell viability, for NC(N)=NC(N)=Nc1cccc(Cl)c1 [1-(m-Chlorophenyl)-biguanide hydrochloride]
1.03

Recorded cell viability for O=C1CC2(CCCC2)CC(=O)N1CCCCN1CCN(c2ncccn2)CC1 [Buspirone hydrochloride] , please?
1.08

Sample Cc1nc2n(c(=O)c1CCN1CCC(c3noc4cc(F)ccc34)CC1)CCCC2 [Risperidone] — what was its cell viability?
0.99

State the recorded cell viability for this entry: COCCCC/C(=N\OCCN)c1ccc(C(F)(F)F)cc1 [Fluvoxamine maleate]
1.07

Look up cell viability: CN[C@H]1CC[C@@H](c2ccc(Cl)c(Cl)c2)c2ccccc21 [Sertraline hydrochloride]
0.958

Consider the compound COc1ccccc1N1CCN(CCCCN2C(=O)c3ccccc3C2=O)CC1 [NAN-190 hydrobromide] and give its measured cell viability.
0.884

Can you look up the measured cell viability of CN1C2CCCC1CC(NC(=O)c1nn(C)c3ccccc13)C2 (stereo unspecified) [Granisetron hydrochloride] for me?
0.955

Record request: cell viability value, item CC(C)COc1ccc(CNC(=O)N(Cc2ccc(F)cc2)C2CCN(C)CC2)cc1 [Pimavanserin]
0.72

What does the record list as cell viability for CC(=O)c1ccc2c(c1)N(CCCN1CCC(CCO)CC1)c1ccccc1S2 [Piperacetazine] ?
0.764

Consider the compound shown here: CN1CC2c3ccccc3Oc3ccc(Cl)cc3C2C1 (stereo unspecified) [Asenapine Maleate] What is its recorded cell viability?
1.1

Which cell viability value belongs to "COc1ccccc1N1CCN(CCN2C(=O)CC3(CCCC3)CC2=O)CC1" ?
0.815

What does the record list as cell viability for COc1ccc(NC(=O)Nc2ccc(F)cc2F)cc1-c1c(Br)cnn1C [Nelotanserin] ?
1.09

Reported cell viability for Cc1[nH]cnc1CN1CCc2c(c3ccccc3n2C)C1=O [Alosetron hydrochloride] : what is it?
1.11

Fill in the blank: the reported cell viability of CN1[C@@H]2CC[C@H]1C[C@@H](OC(=O)c1c[nH]c3ccccc13)C2 [Tropisetron] is ____.
1.01

Can you share its cell viability? I mean this compound: CN(C)CCCN1c2ccccc2CCc2ccccc21 [Imipramine hydrochloride]
1.13

Please report the recorded cell viability for "Cn1ccc2cc3c(cc21)CCN3C(=O)Nc1cccnc1" .
1.06

----------
system: LASCPC-01; experiment: cell viability relative to DMSO control (fraction); higher = less growth inhibition (more viable cells); details: 2 µM; 72 h
Where a name gives a salt, the structure may show the parent alone.
QUANTITY_NAME: cell viability
Give a plain numeric answer without units written out.

| COMPOUND | TEST_SYSTEM | QUANTITY_NAME | VALUE_REPORTED |
| --- | --- | --- | --- |
| O=C1[C@@H]2[C@H]3CC[C@H](C3)[C@@H]2C(=O)N1C[C@@H]1CCCC[C@H]1CN1CCN(c2nsc3ccccc23)CC1 [Lurasidone hydrochloride] | LASCPC-01 | cell viability | 0.876 |
| CN(C)C/C=C(/c1ccc(Br)cc1)c1cccnc1 [Zimelidine dihydrochloride] | LASCPC-01 | cell viability | 1.01 |
| CN1CCC(=C2c3ccccc3CCc3sccc32)CC1 [Pizotifen] | LASCPC-01 | cell viability | 0.586 |

Moving on to the next compound.
Name the reported cell viability value associated with the compound CC(N)C(=O)OC(C)(C)Cc1ccc(Cl)cc1 (centres undefined) [Alaproclate hydrochloride]
1.13

----------
test system: LASCPC-01; assay: cell viability relative to DMSO control (fraction); higher = less growth inhibition (more viable cells); conditions: 2 µM; 72 h
Counter-ions that a name gives are not always drawn.
QUANTITY_NAME: cell viability

| MOLECULE | TEST_SYSTEM | cell viability |
| --- | --- | --- |
| O=C(OC1C[C@@H]2CC3C[C@H](C1)N2CC3=O)c1c[nH]c2ccccc12 (stereo partly drawn) [Dalasetron Mesylate Hydrate] | LASCPC-01 | 0.985 |
| CNS(=O)(=O)CCc1ccc2[nH]cc(C3CCN(C)CC3)c2c1 [Naratriptan hydrochloride] | LASCPC-01 | 1.02 |

Which cell viability value belongs to CN(C)CCC=C1c2ccccc2CCc2ccccc21 [Amitriptyline HCl] ?
1.15

----------
tested on: LASCPC-01; test: cell viability relative to DMSO control (fraction); higher = less growth inhibition (more viable cells); settings: 2 µM; 72 h
Please note: cell viability exactly at 1 is N. Only values below 1 get Y.

Reference set, count: 3
| COMPOUND | CLASS_ASSIGNMENT |
| --- | --- |
| Cn1cc(C(=O)[C@@H]2CCc3[nH]cnc3C2)c2ccccc21 | N |
| O=C(c1ccc(F)cc1)C1CCN(CCn2c(=O)[nH]c3ccccc3c2=O)CC1 [Ketanserin] | Y |
| COc1cc(N)c(Cl)cc1C(=O)OCCN1CCCCC1 | Y |

Given the entry OC(CN1CCN(c2cccc(Cl)c2)CC1)C(c1ccccc1)c1ccccc1 (stereo not given) , would its reported cell viability be below 1?
Y

A record lists COc1cc(/C=C/C(=O)O)ccc1O [Sodium ferulic] . Is its cell viability below 1?
Y

----------
test system: LASCPC-01; assay: cell viability relative to DMSO control (fraction); higher = less growth inhibition (more viable cells); settings: 2 µM; 72 h
Structures can show the parent of a compound that is named as a salt.
QUANTITY_NAME: cell viability
Write no unit; give the number alone.

// known answers, use as guide
| COMPOUND | QUANTITY_NAME | VALUE_REPORTED |
| --- | --- | --- |
| N[C@@H]1CC[C@@H](c2ccc(Cl)c(Cl)c2)c2ccccc21 [Dasotraline hydrochloride] | cell viability | 1.13 |
| CNc1cc(NS(=O)(=O)c2ccc(N)cc2)nc(NC)n1 [Ro 04-6790 dihydrochloride] | cell viability | 1.03 |
| COc1cc(N)c(Cl)cc1C(=O)NC1CCN(CCCOc2ccc(F)cc2)CC1OC (configuration not stated) [Cisapride] | cell viability | 0.803 |
| O=C(O[C@@H]1C[C@@H]2C[C@H]3C[C@H](C1)N2CC3=O)c1c[nH]c2ccccc12 [Dolasetron mesylate hydrate] | cell viability | 1.07 |
| CNS(=O)(=O)CCc1ccc2[nH]cc(C3CCN(C)CC3)c2c1 [Naratriptan] | cell viability | 1.03 |
| c1ccc2c(c1)CC(N1CCN(c3cccc4c3OCCO4)CC1)C2 | cell viability | 0.835 |
| Cc1ccc(Sc2ccccc2N2CCNCC2)c(C)c1 | cell viability | 1.01 |
| COc1ccccc1N1CCN(CCN2C(=O)CC3(CCCC3)CC2=O)CC1 [BMY 7378 dihydrochloride] | cell viability | 1.07 |
| CN(C)CCc1c[nH]c2ccc(CS(=O)(=O)N3CCCC3)cc12 [Almotriptan Malate] | cell viability | 0.818 |
| CNCC[C@@H](Oc1ccccc1C)c1ccccc1 [Atomoxetine HCl] | cell viability | 1.02 |

Which cell viability is listed for CN(C)CC(c1ccc(O)cc1)C1(O)CCCCC1 (configuration not stated) [Desvenlafaxine Succinate] ?
0.883

Record request: cell viability value, item Fc1ccc([C@@H]2CCNC[C@H]2COc2ccc3c(c2)OCO3)cc1 [Paroxetine HCl]
1.02
